Reference source for all entries: patent US20220298138A1

# System Name: Human FXIa (Homo sapiens)
# Construct: Human FXIa (Enzyme Research Laboratories) was incubated; purchased Enzyme Research Laboratories
# Sequence (P03951 388-625 limits assumed): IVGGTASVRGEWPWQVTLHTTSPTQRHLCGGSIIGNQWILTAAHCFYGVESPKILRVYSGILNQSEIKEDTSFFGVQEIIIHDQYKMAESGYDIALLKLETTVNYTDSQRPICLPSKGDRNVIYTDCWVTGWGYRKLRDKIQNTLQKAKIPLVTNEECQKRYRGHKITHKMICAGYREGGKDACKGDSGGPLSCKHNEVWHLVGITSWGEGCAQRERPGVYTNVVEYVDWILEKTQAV
# Sequence (P03951 19-387 partner limits assumed): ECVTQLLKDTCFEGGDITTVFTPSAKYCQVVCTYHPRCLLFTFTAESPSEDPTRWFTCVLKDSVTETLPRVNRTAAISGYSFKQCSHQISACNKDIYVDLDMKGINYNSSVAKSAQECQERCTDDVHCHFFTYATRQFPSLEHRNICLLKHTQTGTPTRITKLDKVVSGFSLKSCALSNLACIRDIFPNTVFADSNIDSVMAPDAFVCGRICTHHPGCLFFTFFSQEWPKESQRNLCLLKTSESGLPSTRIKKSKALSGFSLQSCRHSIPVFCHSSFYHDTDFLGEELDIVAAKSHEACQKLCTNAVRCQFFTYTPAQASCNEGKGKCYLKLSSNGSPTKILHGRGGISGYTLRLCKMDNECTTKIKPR
# Protocol Text: FXIa inhibitory activity in vitro (fluorogenic substrate Z-Gly-Pro-Arg-AFC), selectivity
# Type: biochemical
# Assay Setup: category scale, 25° C.
pIC50: −log10 of the molar value.
Here the recorded pIC50 is given for each entry.
Property Label: pIC50

Compound | System Name | Reading
N[C@H](CCCCn1ccnc1)C(=O)N1CC[C@H]1C(=O)NCc1ccc2[nH]cc(Cl)c2c1 | Human FXIa (Homo sapiens) | < 4.40
CC(C)N[C@H](CCCN1CCCCC1)C(=O)N1CC[C@H]1C(=O)NCc1ccc2c(N)nccc2c1 | Human FXIa (Homo sapiens) | < 4.40
C[C@@H]1CCC[C@H](C)N1CC(=O)N1CC2CC(C(=O)NCc3ccc4c(N)nccc4c3)C1C2 (some centres unmarked) | Human FXIa (Homo sapiens) | < 4.40
CC(C)N[C@H](CCc1ccccc1)C(=O)N1CC[C@H]1C(=O)NCc1ccc2c(N)nccc2c1 | Human FXIa (Homo sapiens) | 4.40 to 5.00
N[C@H](CCCCN1CCOCC1)C(=O)N1CC[C@H]1C(=O)NCc1cnc2[nH]cc(Cl)c2c1 | Human FXIa (Homo sapiens) | < 4.40

---

# System Name: Human Factor XIIa (Homo sapiens, UniProt P00748)
# Construct: purchased Enzyme Research Laboratories
# Sequence (P00748 373-615 limits assumed): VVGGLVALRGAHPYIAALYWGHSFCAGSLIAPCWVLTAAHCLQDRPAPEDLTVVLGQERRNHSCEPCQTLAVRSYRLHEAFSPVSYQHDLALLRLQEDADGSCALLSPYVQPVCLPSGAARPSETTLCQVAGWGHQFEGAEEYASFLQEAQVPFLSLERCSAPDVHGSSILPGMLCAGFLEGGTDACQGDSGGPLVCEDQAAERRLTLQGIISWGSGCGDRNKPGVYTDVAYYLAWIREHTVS
# Protocol Text: Factor XIIa inhibitory activity in vitro (fluorogenic substrate H-DPro-Phe-Arg-AFC)
# Format: biochemical
# Assay Setup: 25° C., class symbols, read-out: Human FXIIa IC50
pIC50: −log10 of the molar value.

Compound | pIC50
CC(C)N[C@H](CCCCN1CCCCC1)C(=O)N1C[C@@H](c2ccc(F)c(F)c2)[C@H]1C(=O)NCc1ccc2[nH]cc(Cl)c2c1 | 6.00 to 6.55
CCOCCC(=O)N[C@@H](Cc1ccc(F)c(F)c1)C(=O)NCc1ccc2c(N)nccc2c1 | 4.40 to 5.00
C[C@@H]1CCC[C@H](C)N1CC(=O)N1CC2CC(C(=O)NCc3ccc4c(N)nccc4c3)C1C2 (stereo partly shown) | 4.40 to 5.00
N#Cc1cccc(CC(=O)N[C@@H](Cc2ccc(F)c(F)c2)C(=O)NCc2ccc3c(N)nccc3c2)c1 | 4.40 to 5.00
C[C@@H](C(=O)NCc1ccc2c(N)nccc2c1)N(C)C(=O)[C@H](N)CCc1ccccc1 | 5.52 to 6.00
C[C@H](NC(=O)[C@H]1C[C@@H](c2ccccc2)CN1)C(=O)NCc1ccc2c(N)nccc2c1 | 6.00 to 6.55
C[C@H](NC(=O)[C@@H](N)CCc1ccccn1)C(=O)NCc1ccc2c(N)nccc2c1 | 4.40 to 5.00

---

# System Name: Human Factor XIIa (Homo sapiens, UniProt P00748)
# Construct: purchased Enzyme Research Laboratories
# Protocol Text: Factor XIIa inhibitory activity in vitro (fluorogenic substrate H-DPro-Phe-Arg-AFC)
# Format: biochemical
# Assay Setup: 25° C., class symbols, read-out: Human FXIIa IC50

Compound | IC50
COc1ccc(C[C@H](NC(=O)[C@@H](CCCCN2CCCCC2)NC(C)C)C(=O)NCc2ccc3c(N)nccc3c2)cc1 | 1 to 3 µM
C[C@@H]1CCC[C@H](C)N1CC(=O)N[C@@H](CCc1ccccc1)C(=O)NCc1ccc2c(N)nccc2c1 | 1 to 3 µM
C[C@@H]1CCC[C@H](C)N1CC(=O)N1c2ccccc2CC[C@H]1C(=O)NCc1ccc2c(N)nccc2c1 | 10 to 40 µM
CC1CCCC(C)N1CC(=O)N[C@@H](Cc1ccc(F)c(F)c1)C(=O)NCc1cnc2[nH]cc(Cl)c2c1 (stereo partly shown) | 1 to 3 µM
Cc1cc(C(=O)N[C@@H](Cc2ccc(F)c(F)c2)C(=O)NCc2ccc3c(N)nccc3c2)n[nH]1 | 3 to 10 µM
N[C@H](CCCCN1CCC(F)(F)CC1)C(=O)N1CC[C@H]1C(=O)NCc1ccc2[nH]cc(Cl)c2c1 | 1 to 3 µM
Nc1nccc2cc(CNC(=O)[C@H](Cc3ccc(F)c(F)c3)NC(=O)c3ccc4c(c3)CC=C(O)N4)ccc12 | 10 to 40 µM
C[C@H](NC(=O)[C@@H](CCc1ccccc1)NCC(C)(C)C)C(=O)NCc1cnc2[nH]cc(Cl)c2c1 | 3 to 10 µM
CC(C)N1CCC[C@@H]1C(=O)N[C@@H](Cc1ccc(F)c(F)c1)C(=O)NC1CCN(c2ccncc2)CC1 | 10 to 40 µM
Cc1c(CNC(=O)[C@H](C)NC(=O)[C@H](N)CCc2ccccc2)ccc2c(N)nccc12 | 0.1 to 0.279 µM
COc1cncc(C(=O)N[C@@H](Cc2ccc(F)c(F)c2)C(=O)NCc2ccc3c(N)nccc3c2)c1 | 3 to 10 µM
C[C@@H]1CCC[C@H](C)N1CC(=O)N[C@@H](Cc1ccc(F)c(F)c1)C(=O)NCc1ccc2c(N)nccc2c1 | 0.03 to 0.1 µM
CN(C)[C@H](CCc1ccccc1)C(=O)NCC(=O)NCc1ccc2c(N)nccc2c1 | 1 to 3 µM
Nc1nccc2cc(CNC(=O)[C@H](Cc3ccc(F)c(F)c3)NC(=O)c3cn[nH]c3)ccc12 | 10 to 40 µM
C[C@@H]1CCC[C@H](C)N1CC(=O)N[C@H](CC(=O)NCc1ccc2c(N)nccc2c1)Cc1ccccc1 | 10 to 40 µM
O=C(NCc1ccc2[nH]cc(Cl)c2c1)[C@@H]1CCN1C(=O)CCCCCN1CCCCC1 | 10 to 40 µM
C[C@@H]1CCC[C@H](C)N1CC(=O)N[C@@H](Cc1cccc(Cl)c1)C(=O)NCc1ccc2c(N)nccc2c1 | 0.1 to 0.279 µM
CC(C)N[C@H](CCCCN1CCCCC1)C(=O)N1CC[C@H]1C(=O)NCc1ccc2c(N)nccc2c1 | 0.28 to 1 µM
CC(C)N[C@H](CCCCN1CCCCC1)C(=O)N[C@@H](Cc1ccc(-c2ccccc2)cc1)C(=O)NCc1ccc2c(N)nccc2c1 | 3 to 10 µM
Nc1nccc2cc(CNC(=O)[C@H](Cc3ccc(F)c(F)c3)NC(=O)c3cc4ccccc4o3)ccc12 | 10 to 40 µM
C[C@@H]1CCC[C@H](C)N1C(=O)N[C@H](CC(=O)NCc1ccc2c(N)nccc2c1)Cc1ccccc1 | 10 to 40 µM
CN[C@H](CCc1ccccc1)C(=O)N[C@@H](Cc1ccccc1)C(=O)NCc1ccc2c(N)nccc2c1 | 3 to 10 µM
CN[C@H](CCc1ccccc1)C(=O)N[C@@H](C)C(=O)NCc1ccc2c(N)nccc2c1 | 0.1 to 0.279 µM
C[C@H](NC(=O)[C@@H](CCc1ccccc1)NC(=O)OC(C)(C)C)C(=O)NCc1ccc2c(N)nccc2c1 | 3 to 10 µM
C[C@@H]1CCC[C@H](C)N1CC(=O)NC(C)(C)C(=O)NCc1ccc2c(N)nccc2c1 | 10 to 40 µM
C[C@@H]1CCC[C@H](C)N1CC(=O)N[C@H]1CCC[C@@H]1C(=O)NCc1ccc2c(N)nccc2c1 | 10 to 40 µM
Nc1nccc2cc(CNC(=O)[C@H](Cc3ccc(F)c(F)c3)NC(=O)[C@H](N)CCCCN3CCCCC3)ccc12 | 0.03 to 0.1 µM
CC1CCCC(C)N1CC(=O)N[C@@H](Cc1cccc(F)c1)C(=O)NCc1ccc2c(N)nccc2c1 (stereo partly shown) | 0.1 to 0.279 µM
